Condition Summary: in n-octanol, 298.15 K
Attribute Measured: solubility (mole fraction)

P: Nc1ccc(S(=O)(=O)Nc2ncccn2)cc1
Q: Nc1ccc(S(=O)(=O)Nc2nccs2)cc1
Input: Select the item with the higher value of solubility (mole fraction) from the options P and Q listed. // respond with label for picked entry
Output: Q

* * *

Condition Summary: in water, 303.15 K
Attribute Measured: solubility (mole fraction)

I: Nc1ccc(S(=O)(=O)Nc2ncccn2)cc1
II: Nc1ccc(S(=O)(=O)Nc2nccs2)cc1
Input: Select the item with the higher value of solubility (mole fraction) from the options I and II listed. // respond with label for picked entry
Output: II

* * *

Condition Summary: in n-octanol, 308.15 K
Attribute Measured: solubility (mole fraction)

1: Nc1ccc(S(=O)(=O)Nc2ncccn2)cc1
2: Nc1ccc(S(=O)(=O)Nc2nccs2)cc1
Input: Which entry shows the lesser value of solubility (mole fraction) here, 1 or 2 ? // respond with label for picked entry
Output: 1

* * *

Condition Summary: in water, 298.15 K
Attribute Measured: solubility (mole fraction)

a: Nc1ccc(S(=O)(=O)Nc2ncccn2)cc1
b: Nc1ccc(S(=O)(=O)Nc2nccs2)cc1
Input: Which entry shows the lesser value of solubility (mole fraction) here, a or b ? // respond with label for picked entry
Output: a
(a: 4.87e-06, b: 3.25e-05)

* * *

Condition Summary: in water, 308.15 K
Attribute Measured: solubility (mole fraction)

a: Nc1ccc(S(=O)(=O)Nc2nccs2)cc1
b: Nc1ccc(S(=O)(=O)Nc2ncccn2)cc1
Input: Which entry shows the lesser value of solubility (mole fraction) here, a or b ? // respond with label for picked entry
Output: b
(b: 7.94e-06, a: 5.92e-05)
